assay: gradient 5% acetonitrile 3 min, to 50% in 2 min, to 85% in 15 min, held 3 min, 100 µL/min; details: column: Zorbax Extend-C18 2.1 x 50 mm; eluents: water / acetonitrile, 0.1% formic acid
Label key: TRUE means RP-LC retention time under 700 s; FALSE means RP-LC retention time of 700 s or more.

Reference set (2 entries):
[[record]]
molecule = "CCCn1cc(C(=O)NCC2CCCO2)c2cccnc21 (centres undefined)"
qualitative_label = "TRUE"

[[record]]
molecule = "O=C(c1ccc(F)cc1F)N1CCN(c2cc(-c3ccc(Cl)cc3)[nH]n2)CC1"
qualitative_label = "FALSE"


Problem: Does this molecule meet the criterion RP-LC retention time < 700 s? C=CC(=O)N1CCCC(n2nc(-c3ccc(Oc4ccccc4)cc3)c3c(N)ncnc32)C1 (centres undefined)
Solution: FALSE

----------
Each item that follows carries a reported RP-LC retention time.
assay: gradient 5% acetonitrile 3 min, to 50% in 2 min, to 85% in 15 min, held 3 min, 100 µL/min; settings: column: Zorbax Extend-C18 2.1 x 50 mm; eluents: water / acetonitrile, 0.1% formic acid
Only the number, expressed in s, is required.

[[record]]
compound = "O=C(Cn1cccc(S(=O)(=O)N2CCOCC2)c1=O)N1CCc2ccccc21"
experimental_result = 667


Problem: What RP-LC retention time value was documented for this compound, CCCN1CCN(C(=O)C2CCCN(c3nnc(C)c4c(C)n(-c5ccccc5)nc34)C2)CC1 (centres undefined) ?
Solution: 582

Problem: What RP-LC retention time value was documented for this compound, `COc1ccccc1CNC(=O)C1CCN(S(=O)(=O)c2cn(C(C)C)cn2)CC1` ?
Solution: 733

Problem: What RP-LC retention time value was documented for this compound, `CCn1c(CCNC(=O)c2cc(F)ccc2F)nc2cccnc21` ?
Solution: 641

Problem: What RP-LC retention time value was documented for this compound, `CC1=C(c2ccccc2)S(=O)(=O)N=C1N1CCCN(C(=O)NCC(C)C)CC1` ?
Solution: 768

Problem: What RP-LC retention time value was documented for this compound, `O=C([C@@H]1C[C@H](F)CN1C(=O)C1(c2ccccc2)CC1)N1CCOCC1` ?
Solution: 639

Problem: What RP-LC retention time value was documented for this compound, `Cc1c(-c2noc(-c3ccc4cc[nH]c4c3)n2)nnn1Cc1cccc(F)c1` ?
Solution: 996

Problem: What RP-LC retention time value was documented for this compound, COc1cccc(CNC(=O)C2(C)CCCN(C(=O)Nc3cc(Cl)ccc3C)C2)c1 (centres undefined) ?
Solution: 982

Problem: What RP-LC retention time value was documented for this compound, `CC(C)Cc1ccc(S(=O)(=O)N2C[C@@H](F)C[C@H]2C(=O)N2CCCCC2)cc1` ?
Solution: 983

----------
assay: gradient 5% acetonitrile 3 min, to 50% in 2 min, to 85% in 15 min, held 3 min, 100 µL/min; conditions: column: Zorbax Extend-C18 2.1 x 50 mm; eluents: water / acetonitrile, 0.1% formic acid
reported.metric: RP-LC retention time (s)
Only the number, expressed in s, is required.

Some solved entries appear below for comparison.
[[record]]
compound = "CCc1ccc(NC(=O)NCc2ccnc(N3CCSCC3)c2)cc1"
unit_label = "s"
experimental_result = 668

[[record]]
compound = "CCOCCCNC(=O)C1CCN(S(C)(=O)=O)c2cc(Cl)ccc2O1 (stereo not given)"
unit_label = "s"
experimental_result = 783

[[record]]
compound = "COc1ccc(C)cc1NC(=O)CCC1CCN(c2cc(NC3CC3)ncn2)CC1"
unit_label = "s"
experimental_result = 712

[[record]]
compound = "COc1ccc(Cl)cc1S(=O)(=O)NC1CCc2nn(C)c(=O)n2CC1 (stereo not given)"
unit_label = "s"
experimental_result = 677


Problem: What RP-LC retention time value was documented for this compound, `CCc1ccc(C2=C(C)C(N3CCCN(C(=O)NC(C)(C)C)CC3)=NS2(=O)=O)cc1` ?
Solution: 928
